# Test system: 415267-285-R-J2-PDC complex spheroid viability;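 note: spheroids exposed to compounds for one week before readout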
# ASSAY NAME: Anticancer human tumor 415267-285-R-J2-PDC patient-derived breast carcinoma cell line growth inhibition [POLQ]
# TEST CONTEXT: curve of first compound; second compound 3.16 µM
Let's look at some compounds and their measured pIC50.
Friendly reminder that pIC50 comes from taking -log10 of the concentration in mol/L.

CC1COCCN1c1cc(C2(S(C)(=N)=O)CC2)nc(-c2ccnc3[nH]ccc23)n1 (stereo unspecified) + Cc1cccc(N(C)C(=O)C2C(O)CCN2c2nc(C)cc(C(F)(F)F)c2C#N)c1
6.37
CC1COCCN1c1cc(-c2ccnn2C)c2ccnc(-c3ccn[nH]3)c2n1 (stereo unspecified) + Cc1cccc(N(C)C(=O)C2C(O)CCN2c2nc(C)cc(C(F)(F)F)c2C#N)c1
7.47
COc1ccc([C@@H](O)c2cc(-c3ncnc4cc(N5CCOCC5)ccc34)c(F)cc2Cl)nn1 + COC1C(OC(N)=O)C(O)C(Oc2ccc3c(O)c(NC(=O)c4ccc(O)c(CC=C(C)C)c4)c(=O)oc3c2C)OC1(C)C
5.09
C=CCn1c(=O)c2cnc(Nc3ccc(N4CCN(C)CC4)cc3)nc2n1-c1cccc(C(C)(C)O)n1 + Cc1cccc(N(C)C(=O)C2C(O)CCN2c2nc(C)cc(C(F)(F)F)c2C#N)c1
6.34
COc1cccc(OCCCN)c1-c1cc(Nc2cnc(C#N)cn2)n[nH]1 + Nc1ccc(C#CCN(C(=O)Cc2ncc(C(F)(F)F)cc2C(F)(F)F)c2ccc(F)cc2)nn1
8.24

Report measured pIC50; entry is CC1COCCN1c1cc(C2(S(C)(=N)=O)CC2)nc(-c2ccnc3[nH]ccc23)n1 (stereo unspecified) + Nc1ccc(C#CCN(C(=O)Cc2ncc(C(F)(F)F)cc2C(F)(F)F)c2ccc(F)cc2)nn1
6.25
